- Test system: EGFR;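 also: KINOMEscan kinase panel screen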
- Study conditions: concentration: 1 μM,replicates: in singlicate; n = 1
Parameter: %Inh (%)

compound=Cn1cc(-c2cccc3c(N)c(C(N)=O)nnc23)cn1 unit=% observed_measurement=22
compound=NC(=O)Nc1sc(-c2ccc(F)cc2)cc1C(N)=O unit=% observed_measurement=23
compound=Cc1n[nH]c2cc(Nc3ccnc(Nc4cccc(CN5CCOCC5)c4)n3)ccc12 unit=% observed_measurement=22
compound="CS(=O)c1ccc(-c2coc3ccc(-c4n[nH]c(=O)o4)cc23)cc1 (stereo not drawn)" unit=% observed_measurement=0
compound=O=C1NCCc2[nH]c(-c3ccncc3)cc21 unit=% observed_measurement=0
compound=COc1cc2ncn(-c3cc(OCC4CCCCC4)c(C(N)=O)s3)c2cc1OC unit=% observed_measurement=38
compound=O=C(Nc1ccccc1)c1cccc(Oc2ccc3nccn3n2)c1 unit=% observed_measurement=3
compound=CS(=O)(=O)c1cccc(CNc2nc(Nc3ccc4c(c3)[C@@H]3C[C@@H]4CNC3=O)ncc2C(F)(F)F)c1 unit=% observed_measurement=5
compound=CNC(=O)c1ccccc1Nc1nc(Nc2cccc(CS(C)(=O)=O)c2)ncc1C.O=CO unit=% observed_measurement=99
